Give measured Human primary T Cell Binding (FOI) for each item. Keep answers brief.
Target: T1, human CD3 expressed on cells (human, UniProt P07766 23-207; P04234 22-171; P09693 23-182)
T1 construct: whole, on cells; CD3 complex on Jurkat cells and on human primary T cells
T1 sequence (P07766 23-207, chain 1 of 3): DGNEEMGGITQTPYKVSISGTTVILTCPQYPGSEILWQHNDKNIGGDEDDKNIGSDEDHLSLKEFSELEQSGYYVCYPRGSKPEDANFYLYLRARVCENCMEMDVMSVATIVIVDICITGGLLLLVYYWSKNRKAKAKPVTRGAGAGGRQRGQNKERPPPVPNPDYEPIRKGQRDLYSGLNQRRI
T1 sequence (P04234 22-171, chain 2 of 3): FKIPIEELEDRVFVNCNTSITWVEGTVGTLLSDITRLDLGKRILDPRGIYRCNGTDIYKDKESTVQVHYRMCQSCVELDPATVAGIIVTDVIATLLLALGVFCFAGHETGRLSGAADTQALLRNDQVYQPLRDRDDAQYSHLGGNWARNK
T1 sequence (P09693 23-182, chain 3 of 3): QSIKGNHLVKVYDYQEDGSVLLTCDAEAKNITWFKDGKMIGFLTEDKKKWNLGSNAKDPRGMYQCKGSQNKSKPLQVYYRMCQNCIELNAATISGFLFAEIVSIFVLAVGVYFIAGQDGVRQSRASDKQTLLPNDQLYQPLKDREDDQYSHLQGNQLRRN
Assay: flow cytometry, 25 nM
Description: Purified antibodies were confirmed to bind CD3 expressed on cells using the CytoFLEX S or LX flow cytometers (Beckman Coulter). Antibodies were diluted to 25 nM in FACS buffer (PBS+2% FBS) and were incubated with CD3-expressing cells for 30 minutes at 4° C. […] The median fluorescence intensity of the binding signal for each antibody was normalized to the isotype control to obtain a fold over isotype value. An antibody with a fold over isotype (FOI) of ≥10 was considered to be positive for binding.
Could you write the number and then its unit?

Ask: Look up Human primary T Cell Binding (FOI) for this binder: mAb 98 (antibody, V domains shown) VH: QVHLVESGGDVVQPGRSLRLSCSASGFTFSGYGMHWVRQAPGKGLEWVALIYFDGRNKYYADSVKGRFTISRDNSKNTLYLQMNSLRAEDTAVYYCARGGGYNWFDPWGQGTLVTVSS VL: DIQMTQSPSSLSASVGDRVTITCRASQSINNYLNWYQQKPGKAPKLLIYLASSLQSGVPSRFSGSGSGTDFTLTISSLQPEDLATYYCQLSYSSPFTFGPGTKVDVK
Reply: 174 FOI

Ask: Quick check: Human primary T Cell Binding (FOI) of mAb 66 (antibody, V domains shown) VH: QVQLVQSGAEVKKPGASVKVSCKASGYTVTGYYMHWVRQAPGQGLEWMGWINPNSGGTNFAQNFQGRVTMTRDTSISTFYMDLSRLRSDDTAVYYCARGGAPVSYWFFDLWGRGTLVTVSS VL: DIQMTQSPSSLSASVGDRVTITCRASQSISRYLNWYQQKPGKAPKVLIYNTSSLKSGVPSRFSGSGSGTDFTLTISSLQPEDFATLYCQQSHSTPFTFGPGTKVDIK ?
Reply: 192 FOI

Ask: Dear colleague, I am looking for the recorded Human primary T Cell Binding (FOI) of the following binder: mAb 167 (antibody, V domains shown) VH: EVHLVESGGGLVQPGRSLRLSCAASGFTFDDYAMHWVRQAPGKGLEWVSGISWNSGTIGYADSVKGRFTISRDNAKNSLYLEMNSLRAEDTALYYCAKDSSGYGHYYHYYIDVWGTGTTVTVSS VL: EIVMTQSPATLSVSPGGRATLSCRASQSVGSNLAWYQQKPGQAPRLLIYDASTRATGIPARFRGSGSGTEFTLTISGLQSEDFAVYYCQLYYNWPHFGQGTRLEIK
Reply: 167 FOI

Ask: Please report the recorded Human primary T Cell Binding (FOI) for mAb 95 (antibody, V domains shown) VH: QAHLVESGGGVVQPGRSLRLSCSASGFTFSGYGMHWVRQAPGKGLEWVALIYFDGRNKYYADSVKGRFTISRDNSKNTLYLQMNSLRAEDTAVYYCARGGGYNWFDPWGQGTLVTVSS VL: DIQMTQSPSSLSASVGDRVTITCRASQSINNYLSWYQQKPGKAPKLLIYLASNLQSGVPSRFSGSGSGTDFTLTISSLQPEDFATYYCQLSYRSPFTFGPGTKVDVK .
Reply: 206 FOI
